Each entry below carries its reported clearance.
Experiment: Total clearance in rat at 1 mg/kg, iv and 5 mg/kg, po
Assay type: ADME, organism-based
Details: in vivo
Give just the number in mL/min/kg; leave the unit off.

Consider the following illustrative entries.
| compound | clearance [mL/min/kg] |
| --- | --- |
| COCCN1CCn2cc(C(=O)NCc3ccc(F)cc3)c(=O)c(O)c2C1=O | 0.51 |
| COCCN1C(=O)c2c(O)c(=O)c(C(=O)NCc3ccc(F)cc3)cn2CC1O (centres undefined) | 0.24 |
| COCCn1ccn2cc(C(=O)NCc3ccc(F)cc3)c(=O)c(O)c2c1=O | 0.02 |

We now examine a further compound.
Challenge: Identify measured clearance associated with O=C(NCc1ccc(F)cc1)c1cn2c(c(O)c1=O)C(=O)N1CCCOC1C2 (racemic)
Response given: 0.1
